Target: Interleukin-5 (Mus musculus)
Sequence (whole entry): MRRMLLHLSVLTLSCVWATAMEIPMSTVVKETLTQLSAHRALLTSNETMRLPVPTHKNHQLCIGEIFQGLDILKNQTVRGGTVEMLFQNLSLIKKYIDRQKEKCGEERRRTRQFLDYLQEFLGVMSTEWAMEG
Test: Inhibition of interleukin-5 in mouse Y16 cells at 30 uM
Format: cell-based
Kindly state inhibition for each of the entries shown.

Would you please look over these solved cases?
{"molecule": "O=c1c(CNc2ccc(O)cc2)coc2cccc(OCC3CCCCC3)c12", "assay-result": "57%"}
{"molecule": "CC(C)(CO)NCc1coc2cccc(OCC3CCCCC3)c2c1=O", "assay-result": "63%"}

Lookup result for CC(C)(C)C(CO)NCc1coc2cccc(OCC3CCCCC3)c2c1=O (stereo not drawn) ; measured inhibition: 65%
